# Test Summary: Particle size and polydispersity index of nanoparticle compositions (Zetasizer Nano ZS)
# Format: physicochemical
# Test Parameters: Table 1; rows without footnote mark (lipid:DOPE:cholesterol:PEG-DMG 40:20:38.5:1.5, Luc mRNA; MC3 standard formulation)
Reported Endpoint: Size (nm)

[[record]]
compound = "CCCCCCCCCCCCN(CCCCCCCCCCCC)CCN1CCN(CCN(CCCCCCCCC)CCN(CCCCCCCCC)CCCCCCCCC)CC1"
observed = 76.1

[[record]]
compound = "CCCCCCCCCCCCN(CCCCCCCCCCCC)CCN(CCCCCCCCCCCC)CC(=O)N1CC2CC1CN2C(=O)CN(CCCCCCCCC)CCCCCCCCC (stereo not drawn)"
observed = 99.0

[[record]]
compound = "CCCCCCCCCCCCN(CCCCCCCCCCCC)CCN(CCCCCCCCCCCC)CCN1CCN(C(=O)CN(CCCCCCCCCCCC)CCCCCCCCCCCC)CC1"
observed = 73.5

[[record]]
compound = "CCCCC/C=C\\C/C=C\\CCCCCCCCN(CCCCCCCC/C=C\\C/C=C\\CCCCC)CCN1CCN(CCN(CCCCCCCCCCCC)CCN(CCCCCCCCCCCC)CCCCCCCCCCCC)CC1"
observed = 105.3

[[record]]
compound = "CCCCCCCCCCCCCCN(CCCCCCCCCCCCCC)CC(=O)N1CCN(C(=O)CN(CCCCCCCCC)CCN(CCCCCCCCC)CCCCCCCCC)CC1"
observed = 76.6

[[record]]
compound = "CCCCCCCCCN(CCCCCCCCC)CCC(=O)N1CCN(C(=O)CCN(CCCCCCCCC)CCN(CCCCCCCCC)CCCCCCCCC)CC1"
observed = 94.4


###

# System: modified luciferase expression
# Test Summary: Expression of Luc in different organs (liver, lung, spleen, femur) 6 hours after intravenous administration
# Assay type: in vivo
# Test Parameters: Table 17-3, mice, i.v., 0.5 mpk, spleen
Quick list: Total Flux Spleen per entry.
Reply with just the number.

[[record]]
compound = "CCCCC/C=C\\C/C=C\\CCCCCCCCN(CCO)CCCCCCCCC [Compound 17-3]"
observed = "1.02E+05"


GET /values?readout=Total Flux Spleen&item= CCCCC/C=C\C/C=C\CCCCCCCCN(CCO)CCCCCC [Compound 17-2]
4.16E+04

Further, for CCCCCCCC/C=C\CCCCCCCCN(CCO)CCCCCCCC/C=C\CCCCCCCC [Compound 17-8] ?
4.25E+06

Further, for CCCCC/C=C\C/C=C\CCCCCCCCN(CCO)CCCCCCCCCCCC [Compound 17-4] ?
2.30E+06

Further, for CCCCC/C=C\C/C=C\CCCCCCCCN(CCO)CCCCCCCCCCCCCC [Compound 17-5] ?
2.13E+06

Further, for CCCCC/C=C\C/C=C\CCCCCCCCN(CCCCCCCC/C=C\C/C=C\CCCCC)CCOC [Compound 17-9] ?
3.72E+05

###

# Test Summary: Particle size and polydispersity index of nanoparticle compositions (Zetasizer Nano ZS)
# Type: physicochemical
# Test Parameters: Table 17-1
Reported Endpoint: PDI

Use the examples below as a reference point.
[[record]]
compound = "CCCCCC=CCC=CCCCCCCCCC(CCCCCCCCC=CCC=CCCCCC)OC(=O)CCCN(C)C (stereo not shown) [MC3, reference compound]"
reported_endpoint = "PDI"
observed = 0.138

[[record]]
compound = "CCCCC/C=C\\C/C=C\\CCCCCCCCN(CCO)CCCCCC"
reported_endpoint = "PDI"
observed = 0.104


1: CCCCC/C=C\C/C=C\CCCCCCCCN(CCO)CCCCCCCCCCCCCC
2: CCCCCCCC/C=C\CCCCCCCCN(CCO)CCCCCCCC/C=C\CCCCCCCC
Select the item whose PDI value is smaller, choosing between 1 and 2 . Could you answer with the label of the item you picked?
1
(1: 0.137, 2: 0.20)

The reported numbers originate from patent US10195156B2.
